From: patent US4786638A

Molecular target: aldose reductase (Bos taurus)
Construct: preparation of the enzyme from bovine lens; from tissue; host or cells: bovine lens
Experiment: In vitro aldose reductase inhibition (modified Hayman and Kinoshita procedure; enzyme from bovine lens)
Format: biochemical
Conditions: read-out: % Inhibition IN VITRO 10^-5 M
Label scheme for inhibition at 10 µM: lower than 90% is Criterion not met, 90% and above is Criterion met.

compound: N#Cc1c(-c2ccccc2)nc(-c2cccc3ccccc23)n(CC(=O)O)c1=O [Example 19]
qualitative.label: Criterion not met
--
compound: N#Cc1c(SCc2ccc(Br)cc2)nc(C2CCCCC2)n(CC(=O)O)c1=O [Example 3]
qualitative.label: Criterion met
--
compound: N#Cc1c(SCc2ccccc2)nc(C2CCCCC2)n(CC(=O)O)c1=O [Example 2]
qualitative.label: Criterion met
--
compound: CC(C)c1nc(SCc2ccccc2)c(C#N)c(=O)n1CC(=O)O [Example 10]
qualitative.label: Criterion met
--
compound: N#Cc1c(-c2ccccc2)nc(-c2cccc3c(Br)cccc23)n(CC(=O)O)c1=O [Example 20]
qualitative.label: Criterion not met
--
compound: CC(C)Sc1nc(C2CCCCC2)n(CC(=O)O)c(=O)c1C#N [Example 6]
qualitative.label: Criterion met
--
compound: Cc1nc(NCc2ccccc2)c(C#N)c(=O)n1CC(=O)O [Example 17]
qualitative.label: Criterion met

----------
Target: aldose reductase (Bos taurus, UniProt P16116)
Construct: preparation of the enzyme from bovine lens; from tissue; host or cells: bovine lens
Assay: In vitro aldose reductase inhibition (modified Hayman and Kinoshita procedure; enzyme from bovine lens)
Format: biochemical
Details: read-out: % Inhibition IN VITRO 10^-7 M
Binary classification by inhibition at 0.1 µM, with 90% as an inclusive lower bound for y; all other cases are n.

smiles.data: Cc1nc(N2CCCCC2)c(C#N)c(=O)n1CC(=O)O
qualitative.label: n
//
smiles.data: CCCCCCSc1nc(C2CCCCC2)n(CC(=O)O)c(=O)c1C#N
qualitative.label: y
//
smiles.data: CSc1nc(C)n(CC(=O)O)c(=O)c1C#N
qualitative.label: n
//
smiles.data: CSc1nc(C(C)C)n(CC(=O)O)c(=O)c1C#N
qualitative.label: y
//
smiles.data: N#Cc1c(SCc2ccc(Br)cc2)nc(C2CCCCC2)n(CC(=O)O)c1=O
qualitative.label: y
//
smiles.data: Cc1nc(NCCc2ccccc2)c(C#N)c(=O)n1CC(=O)O
qualitative.label: n
//
smiles.data: N#Cc1c(-c2ccccc2)nc(-c2cccc3ccccc23)n(CC(=O)O)c1=O
qualitative.label: n
//
smiles.data: Cc1nc(-c2cccc3ccccc23)n(CC(=O)O)c(=O)c1C#N
qualitative.label: n
//
smiles.data: N#Cc1c(Cc2cccc3ccccc23)nc(-c2cccc3c(Br)cccc23)n(CC(=O)O)c1=O
qualitative.label: n
//
smiles.data: Cc1nc(N2CCC(Cc3ccccc3)CC2)c(C#N)c(=O)n1CC(=O)O
qualitative.label: n
//
smiles.data: Cc1nc(NCc2cccnc2)c(C#N)c(=O)n1CC(=O)O
qualitative.label: n

----------
The reader will find reported inhibition at 1 µM values listed item by item below.
Molecular target: aldose reductase (Bos taurus, UniProt P16116)
Construct: preparation of the enzyme from bovine lens; from tissue; host or cells: bovine lens
Experiment: In vitro aldose reductase inhibition (modified Hayman and Kinoshita procedure; enzyme from bovine lens)
Assay type: biochemical
Conditions: read-out: % Inhibition IN VITRO 10^-6 M

smiles.data: Cc1nc(NCC2CCCCC2)c(C#N)c(=O)n1CC(=O)O
inhibition at 1 µM, %: 91
//
smiles.data: Cc1nc(NCCc2ccccc2)c(C#N)c(=O)n1CC(=O)O
inhibition at 1 µM, %: 88
//
smiles.data: Cc1nc(N2CCN(Cc3ccccc3)CC2)c(C#N)c(=O)n1CC(=O)O
inhibition at 1 µM, %: 89
//
smiles.data: CC(C)Sc1nc(C2CCCCC2)n(CC(=O)O)c(=O)c1C#N
inhibition at 1 µM, %: 92
//
smiles.data: Cc1nc(NCc2ccccc2)c(C#N)c(=O)n1CC(=O)O
inhibition at 1 µM, %: 90
//
smiles.data: Cc1nc(NCc2cccnc2)c(C#N)c(=O)n1CC(=O)O
inhibition at 1 µM, %: 90
//
smiles.data: Cc1nc(N2CCC(Cc3ccccc3)CC2)c(C#N)c(=O)n1CC(=O)O
inhibition at 1 µM, %: 88
